Data credit: patent US9546164B2

# Experimental Target: hNav1.7 (Homo sapiens (Human), UniProt Q15858)
# Sequence (Q15858 other isoform, or with tags, fused parts or gaps): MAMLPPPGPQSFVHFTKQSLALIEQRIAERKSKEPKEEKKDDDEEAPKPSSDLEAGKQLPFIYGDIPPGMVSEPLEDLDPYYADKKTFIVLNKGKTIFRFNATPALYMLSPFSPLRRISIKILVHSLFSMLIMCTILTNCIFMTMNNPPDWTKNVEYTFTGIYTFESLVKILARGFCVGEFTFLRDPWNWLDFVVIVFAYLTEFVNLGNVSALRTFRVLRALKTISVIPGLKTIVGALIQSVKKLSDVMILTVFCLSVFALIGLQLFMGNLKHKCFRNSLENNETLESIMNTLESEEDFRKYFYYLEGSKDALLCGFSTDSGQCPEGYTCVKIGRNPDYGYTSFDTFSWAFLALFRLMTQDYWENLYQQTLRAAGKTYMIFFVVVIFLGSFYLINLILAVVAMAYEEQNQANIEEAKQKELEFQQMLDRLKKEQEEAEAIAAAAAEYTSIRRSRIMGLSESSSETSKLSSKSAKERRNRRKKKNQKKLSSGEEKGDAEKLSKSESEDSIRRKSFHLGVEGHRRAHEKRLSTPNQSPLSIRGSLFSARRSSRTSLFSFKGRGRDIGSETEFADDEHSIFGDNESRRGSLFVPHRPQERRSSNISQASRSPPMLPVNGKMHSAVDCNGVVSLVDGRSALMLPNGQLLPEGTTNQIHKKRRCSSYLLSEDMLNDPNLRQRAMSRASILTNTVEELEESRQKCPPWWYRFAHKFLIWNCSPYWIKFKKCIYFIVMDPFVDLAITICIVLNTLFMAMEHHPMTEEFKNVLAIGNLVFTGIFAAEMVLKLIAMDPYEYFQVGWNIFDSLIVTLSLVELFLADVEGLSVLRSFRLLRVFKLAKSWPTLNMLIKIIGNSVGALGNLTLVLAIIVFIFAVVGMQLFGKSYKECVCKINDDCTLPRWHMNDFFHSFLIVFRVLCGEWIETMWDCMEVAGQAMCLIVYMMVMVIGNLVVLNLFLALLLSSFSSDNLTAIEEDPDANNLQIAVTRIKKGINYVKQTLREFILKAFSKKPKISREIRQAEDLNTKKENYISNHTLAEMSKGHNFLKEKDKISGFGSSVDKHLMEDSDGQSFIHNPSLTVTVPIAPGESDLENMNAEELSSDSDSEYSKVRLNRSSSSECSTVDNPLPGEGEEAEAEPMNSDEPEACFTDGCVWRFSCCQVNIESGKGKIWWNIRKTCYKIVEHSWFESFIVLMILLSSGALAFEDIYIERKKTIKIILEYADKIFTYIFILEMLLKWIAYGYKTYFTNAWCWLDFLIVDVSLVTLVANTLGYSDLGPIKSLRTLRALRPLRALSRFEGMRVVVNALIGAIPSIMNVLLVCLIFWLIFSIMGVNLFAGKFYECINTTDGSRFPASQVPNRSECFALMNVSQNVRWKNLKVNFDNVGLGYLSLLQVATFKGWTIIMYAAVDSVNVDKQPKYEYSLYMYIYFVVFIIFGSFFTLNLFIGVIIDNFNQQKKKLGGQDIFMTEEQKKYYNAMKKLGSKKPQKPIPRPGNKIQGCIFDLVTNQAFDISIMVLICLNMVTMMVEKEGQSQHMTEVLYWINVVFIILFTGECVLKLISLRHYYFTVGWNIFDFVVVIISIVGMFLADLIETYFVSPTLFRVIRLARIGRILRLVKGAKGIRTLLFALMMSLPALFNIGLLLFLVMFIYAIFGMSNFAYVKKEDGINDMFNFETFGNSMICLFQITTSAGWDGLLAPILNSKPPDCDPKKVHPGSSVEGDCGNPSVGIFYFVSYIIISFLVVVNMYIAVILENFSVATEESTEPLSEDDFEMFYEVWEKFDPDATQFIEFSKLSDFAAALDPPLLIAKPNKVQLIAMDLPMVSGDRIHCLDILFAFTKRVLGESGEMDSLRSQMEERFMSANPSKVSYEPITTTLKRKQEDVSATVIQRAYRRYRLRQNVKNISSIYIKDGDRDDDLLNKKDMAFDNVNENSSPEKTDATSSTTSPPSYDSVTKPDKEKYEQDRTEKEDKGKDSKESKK
# Sequence (Q07699 19-218 partner): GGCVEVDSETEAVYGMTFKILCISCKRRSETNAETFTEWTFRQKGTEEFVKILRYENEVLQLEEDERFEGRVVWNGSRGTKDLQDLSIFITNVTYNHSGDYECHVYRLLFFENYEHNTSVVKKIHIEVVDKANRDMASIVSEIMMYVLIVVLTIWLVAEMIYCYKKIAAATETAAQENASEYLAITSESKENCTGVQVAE
# Protocol Text: Tritiated sulfonamide competitive binding to membranes from cells expressing hNav1.7 and the β1 subunit
pIC50: −log10 of the molar value. Structures can show the parent of a compound that is named as a salt.
Experimental Readout: pIC50

Below, each entry is followed by its recorded pIC50 result.
# Compound, Val
measured = [
    ("CS(=O)(=O)NC(=O)c1cc(C2CC2)c(CN2CCC(Oc3ccc(Cl)cc3Cl)CC2)cc1F [Example 546, trifluoroacetic acid salt]", 7.92),
    ("Cc1ccc(CN2CCC[C@@H](Oc3cc(F)c(C(=O)NS(=O)(=O)N4CCC4)cc3C3CC3)C2)cc1", 7.88),
    ("CS(=O)(=O)NC(=O)c1cc(C2CC2)c(O[C@@H]2CCCN(Cc3c(Cl)cccc3Cl)C2)cc1F", 8.39),
    ("CS(=O)(=O)NC(=O)c1cc(C2CC2)c(CN2CCC(Oc3ccc(Cl)c(C(F)(F)F)c3)CC2)cc1F [Example 519, trifluoroacetic acid salt]", 8.09),
    ("O=C(NS(=O)(=O)N1CCC1)c1cc(C2CC2)c(O[C@@H]2CCCN(c3cc(Cl)cc(Cl)c3)C2)cc1F", 8.31),
]

1. O=C(NS(=O)(=O)N1CCC1)c1cc(C2CC2)c(O[C@@H]2CCCN(Cc3cc(Cl)cc(Cl)c3)C2)cc1F
2. C[C@@H]1CN(Cc2cc(F)c(C(=O)NS(C)(=O)=O)cc2C2CC2)CCN1[C@@H](C)c1cc(Cl)cc(Cl)c1
I'd appreciate it if you could identify which of 1 and 2 has the greater pIC50. State the label of the item chosen.
1
(1: 8.15, 2: 7.35)

====

# Experimental Target: hNav1.7 (Homo sapiens (Human), UniProt Q15858)
# Protocol Text: Tritiated sulfonamide competitive binding to membranes from cells expressing hNav1.7 and the β1 subunit;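 note: Filter-bound radioactivity counted by liquid scintillation, nonspecific binding defined with excess unlabelled ligand, IC50 fitted to percent inhibition of specific binding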
# Test Context: read-out: Ligand Binding Assay; 100 pM [3H]compound, membranes with hNav1.7 and β1 subunit, 18 h, room temperature
Counter-ions that a name gives are not always drawn.
Experimental Readout: IC50 (nM)

# Compound, Units Label, IC50
data = [
    ("COC[C@@H](c1cccc(Cl)c1)N1CCC(COc2cc(F)c(C(=O)NS(C)(=O)=O)cc2C2CC2)CC1", "nM", 18),
]

a. C[C@@H](c1ccc(Cl)c(C2CC2)n1)N1CCC[C@@H](Oc2cc(F)c(C(=O)NS(C)(=O)=O)cc2C2CC2)C1
b. O=C(NS(=O)(=O)N1CCC1)c1cc(C2CC2)c(O[C@@H]2CCCN(Cc3ccccc3)C2)cc1F
I'd appreciate it if you could identify which of a and b has the greater IC50. State the label of the item chosen.
b

P. COC[C@H](c1ccc(F)c(Cl)c1)N1CCC(COc2cc(F)c(C(=O)NS(C)(=O)=O)cc2C2CC2)CC1 (single isomer, unassigned)
Q. CS(=O)(=O)NC(=O)c1cc(C2CC2)c(OCC2CCN([C@@H]3c4ccccc4C[C@H]3O)CC2)cc1F
R. O=C(NS(=O)(=O)C1CC1)c1cc(C2CC2)c(CN2CCC(Oc3cc(Cl)cc(Cl)c3)CC2)cc1F [Example 57, trifluoroacetic acid salt]
S. CS(=O)(=O)NC(=O)c1cc(C2CC2)c(CN2CCO[C@@H](Cc3ccc(Cl)c(Cl)c3)C2)cc1F
Hey, quick one: sort these by IC50, low to high? Reply: labels, ordered per the request.
R, P, S, Q
(R: 3.8 nM, P: 14 nM, S: 42.1 nM, Q: 9400 nM)

1. COC[C@H](c1cc(Cl)cc(Cl)c1)N1CCC(C)(COc2cc(F)c(C(=O)NS(C)(=O)=O)cc2C2CC2)CC1 (single isomer, unassigned)
2. CS(=O)(=O)NC(=O)c1cc(C2CC2)c(OCC2CN([C@@H](c3ccccc3)c3ccccc3Cl)C2)cc1F
3. CS(=O)(=O)NC(=O)c1cc(C2CC2)c(OCC2CCN(Cc3cc(Cl)cc(C(F)(F)F)c3)CC2)cc1F
4. CCS(=O)(=O)NC(=O)c1cc(C2CC2)c(OCC2CCN(C3(c4cc(Cl)cc(Cl)c4)COC3)CC2)cc1F
Hey, quick one: sort these by IC50, low to high? Reply: labels, ordered per the request.
3, 1, 4, 2

a. CS(=O)(=O)NC(=O)c1cc(C2CC2)c(O[C@@H]2CCCN(CC3(C(F)(F)F)CCCC3)C2)cc1F
b. CS(=O)(=O)NC(=O)c1cc(C2CC2)c(OCC2CCN(Cc3cc(F)cc(C(F)(F)F)c3)CC2)cc1F
c. CS(=O)(=O)NC(=O)c1cc(C2CC2)c(OCC2CCN(Cc3ccc(Cl)c(C(F)(F)F)c3)CC2)cc1F
Falling order of IC50, please. Reply: labels, ordered per the request.
c, b, a
(c: 7.3 nM, b: 5.1 nM, a: 2.7 nM)
